- ASSAY_OVERVIEW: chemical genetic growth profiling, strain panel (AID 1159580);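 further: tested at 20 µM; growth read once vehicle control cultures reached saturation at 30 °C; lower values mean less growth of the strain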
- TEST_PARAMETERS: S. cerevisiae deletion strains, growth OD, locus YGR052W, strain FMP48
Among all 5,500 compounds or so, about 2,000 (36%) were called active. Inconclusive results (about 18%) are left out. No stated cut-off is given here; in the data, active means normalized growth mostly below about 0.91 (no sharp cut-off); inconclusive means no clear call, values can overlap the other calls; inactive means mostly above about 0.92. Some of the results follow.
Would you mind answering with one of these outcomes? active, inactive

{"COMPOUND": "C/C(=C\\c1ccc2c(c1)OCO2)[N+](=O)[O-]", "CLASS_NAME": "active"}
{"COMPOUND": "C=CCOc1ccc(/C=C/[N+](=O)[O-])cc1", "CLASS_NAME": "active"}

Q: State the result this test recorded for `CSc1ccc(/C=C(\C)[N+](=O)[O-])cc1` .
A: active

Q: State the result this test recorded for `CCOc1ccc(/C=C(\C)[N+](=O)[O-])cc1OC` .
A: active

Q: State the result this test recorded for `CSc1ccc(/C=C/[N+](=O)[O-])cc1` .
A: active

Q: State the result this test recorded for `O=C(NCc1ccncc1)c1ccc(-n2cccn2)cc1` .
A: inactive

Q: State the result this test recorded for `FC(F)(F)c1cccc(NNC(=S)Nc2ccccc2)c1` .
A: inactive

Q: State the result this test recorded for OC(CNCc1ccc(Cl)cc1)CO/N=C\C1=C(Cl)c2cc(Cl)ccc2OC1 (stereo unspecified) .
A: inactive

Q: State the result this test recorded for `CC(C)c1ccc(N2C=Nc3ccc(C(C)C)cc3C2)cc1` .
A: inactive

Q: State the result this test recorded for `O=C(c1ccc2ccccc2c1)N1CCN(c2ccnc3cc(Cl)ccc23)CC1` .
A: inactive

Q: State the result this test recorded for O=C1CSC(c2cccnc2)N1c1ccc(Cl)cc1Cl (stereo unspecified) .
A: inactive

Q: State the result this test recorded for `FC(F)(F)c1cccc(NC(=S)Nc2ccccc2)c1` .
A: inactive

Q: State the result this test recorded for `Cc1cccc(Cl)c1/C=N\NC(N)=S` .
A: inactive

Q: State the result this test recorded for `O=C(Nc1ccc(N2CCOCC2)cc1)c1ccc(-n2cccn2)cc1` .
A: inactive

Q: State the result this test recorded for `NC(=Nc1ccc(F)cc1)SCc1c(Cl)cccc1Cl` .
A: inactive

Q: State the result this test recorded for `S=C(N/N=C\c1ccc(Cl)cc1)N/N=C\c1ccc(Cl)cc1` .
A: inactive
